# Tested on: LOX IMVI
# PROTOCOL DETAILS: NCI tumour cell line growth inhibition, 48 h
Activity calls are given as the source filed them. No stated cut-off is given here; in the data, active = GI50 up to about 1.1 µM and inactive = higher.
The categories you may choose from are true (1) (active), false (0) (inactive)

| COMPOUND | CLASS NAME |
| --- | --- |
| CCCCCCCCCCCCC/C=C(/COCC[N+](C)(C)C)OC(C)=O.CCCCCCCCCCCCCC/C(=C/OCC[N+](C)(C)C)OC(C)=O | true (1) |
| CCOC(=O)C[C@@]12CCCN[C@]1(C)CCc1ccccc12 | false (0) |
| O=c1cc(NNc2cccc(F)c2)[nH]c(=O)[nH]1 | false (0) |
| CCOC(=O)c1nc2cc(C(F)(F)F)ccc2nc1Nc1cc(OC)c(OC)c(OC)c1 | false (0) |
| CC(=O)n1[nH]c(=O)n(-c2ccccc2)c1=O | false (0) |

Req: Call for entry `C[C@@H](c1ccccc1)N(CC#N)[C@H]1CCC[C@]1(O)/C=C/c1ccc2c(c1)OCO2` :
Resp: false (0)

Req: In this assay, the call recorded for `O=C(NCc1ccccc1)c1cc2cc(O)c(O)cc2cn1` was what?
Resp: false (0)

Req: What call does the record list for `COc1ccc(/C=C/C(=O)C(C)(C)Br)cc1` ?
Resp: false (0)

Req: Would you mind telling me which call this test gave `Cc1ccc(C(=O)/C=C2/Nc3ccc([N+](=O)[O-])cc3N/C2=C/C(=O)c2ccc(C)cc2)cc1` ?
Resp: false (0)

* * *

Recorded GI50, one value per entry.
# Tested on: CCRF-CEM
# PROTOCOL DETAILS: NCI tumour cell line growth inhibition, 48 h
Activity calls are given as the source filed them. No stated cut-off is given here; in the data, active = GI50 up to about 1.1 µM and inactive = higher.

These solved cases illustrate the format of a correct answer.
| MOLECULE | READING |
| --- | --- |
| CS(=O)(=O)OCCCCOS(C)(=O)=O | 145 µM (inactive) |
| CS(=O)(=O)Nc1ccc2c(c1)N(S(C)(=O)=O)CC2COS(C)(=O)=O (stereo not given) | 35.8 µM (inactive) |
| CC1=NN(C(=O)CC(=O)Nc2cccc(Cl)c2)C(=O)C1/N=N\c1ccc(S(=O)(=O)c2ccc(/N=N/C3C(=O)N(C(=O)CC(=O)Nc4cccc(Cl)c4)N=C3C)cc2)cc1 (stereo not given) | > 100 µM (inactive) |
| COc1cccc(NC(=O)C(C#N)=C(SC)SC)c1 | 34 µM (inactive) |
| CC(C)(C)OC(=O)NC1CCCCC1NC(=O)C(=O)NC1CCCCC1NC(=O)OC(C)(C)C (stereo not given) | > 100 µM (inactive) |

Req: # input molecule: `COc1cc2c(cc1Cc1c(F)cccc1Cl)nc(-c1c(F)cccc1Cl)n2Cc1c(F)cccc1Cl` ; wanted: its GI50
Resp: 2.1 µM (inactive)

Req: Looking for the measured GI50 of `O=C(Nc1ccccc1)OCc1nc2c([nH]1)C(=O)C=CC2=O` , can you help?
Resp: 3.34 µM (inactive)

Req: Need GI50 of O=S(=O)(c1cccc(C(F)(F)F)c1)N1c2ccccc2-n2cccc2C1c1cccnc1 (stereo not given) , thanks.
Resp: 8.75 µM (inactive)

Req: Given the molecule `CCc1n[nH]c(=O)n1NC(=O)/C=C\C(=O)O` , what is its reported GI50?
Resp: > 100 µM (inactive)

Req: Look up GI50: `CCOC(=O)CCc1c(C)c2ccc(O)cc2oc1=O`
Resp: > 100 µM (inactive)

* * *

# Test system: DU-145
# PROTOCOL DETAILS: NCI tumour cell line growth inhibition, 48 h
Activity calls are given as the source filed them. Rule as the data show it: active = GI50 up to about 1.1 µM and inactive = higher.
Please answer using one outcome listed in 1 (yes) (active), 0 (no) (inactive)

Examples with answers:
| MOLECULE | CLASS NAME |
| --- | --- |
| COCN1C(=O)[C@@H]2CCCN2C(=O)c2ccc(Cl)cc21 | 0 (no) |
| COc1cc2c(cc1O)Cc1c-2[n+](C)cc2cc(OC)c(OC)cc12 | 0 (no) |
| Cn1c(COC(=O)NC2CCCCC2)c(COC(=O)NC2CCCCC2)c2ccc3cc(C=O)ccc3c21 | 0 (no) |
| CN(C)c1ccc(/N=N\c2cccc3ccoc23)cc1 | 0 (no) |
| CC(C)CNC(=O)c1c(NC(=O)c2ccccc2)sc2[nH]c(=O)n(-c3ccccc3)c(=O)c12 | 0 (no) |

Req: Record lookup: outcome of this test for CN(C)c1ccc(C(C#N)N2CCCN(C(C#N)c3ccc(N(C)C)cc3)C2c2ccc(N(C)C)cc2)cc1 (configuration not stated) ?
Resp: 0 (no)

Req: Record lookup: outcome of this test for Cc1c(N)nc([C@H](CC(N)=O)NC[C@H](N)C(N)=O)nc1C(=O)N[C@H](C(=O)N[C@H](C)[C@@H](O)CC(=O)N[C@H](C(=O)NC(O[C@@H]1O[C@@H](C)[C@@H](N)[C@@H](O)[C@H]1O)C(O)c1nc(-c2nc(C(=O)NCCC[S+](C)C)cs2)cs1)[C@@H](C)O)[C@H](O[C@@H]1O[C@@H](CO)[C@@H](O)[C@H](O)[C@@H]1O[C@H]1O[C@H](CO)[C@@H](O)[C@H](OC(N)=O)[C@@H]1O)c1c[nH]cn1 (some centres not stated) ?
Resp: 0 (no)

Req: Kindly provide the recorded test outcome for the following molecule: `O=CNc1ccccc1OCCOc1ccccc1NC=O`
Resp: 0 (no)

* * *

# Tested on: IGROV-1
# PROTOCOL DETAILS: NCI tumour cell line growth inhibition, 48 h
Calls of active or inactive are those of the source. No stated cut-off is given here; in the data, active = GI50 up to about 1.1 µM and inactive = higher.
Quick list: GI50 per entry.

Some solved cases for reference:
| COMPOUND | MEASURED ON | GI50 |
| --- | --- | --- |
| COc1cc(COC(=O)N2CSCC2C(=O)O)c([N+](=O)[O-])cc1OC (centres undefined) | IGROV-1 | > 100 µM (inactive) |
| COc1cc2c(cc1O)Cc1c-2[n+](C)cc2cc(OC)c(OC)cc12 | IGROV-1 | 52.7 µM (inactive) |
| CN(C)c1ccc(C(C#N)N2CCCN(C(C#N)c3ccc(N(C)C)cc3)C2c2ccc(N(C)C)cc2)cc1 (centres undefined) | IGROV-1 | > 100 µM (inactive) |
| O=C(c1nc2ccc(Cl)cc2nc1O)C(O)c1ccc2c(c1)OCO2 (centres undefined) | IGROV-1 | > 100 µM (inactive) |
| O=C(O)CNS(=O)(=O)c1ccc(NC(=O)c2ccccc2[N+](=O)[O-])cc1 | IGROV-1 | > 100 µM (inactive) |

Req: Item `CCCN(CCC)CCc1ccc(OC2=CCN(C)CC2)cc1` has what recorded GI50?
Resp: 67.3 µM (inactive)

Req: Report GI50 for `O=[N+]([O-])/C(C(Cl)=C(Cl)Cl)=C(/Sc1ccccc1)N1CCOCC1` please.
Resp: 3.13 µM (inactive)

Req: Dear colleague, I am looking for the recorded GI50 of the following compound: `COc1ccc(-c2c3c(nc4nc(SC)nc(SC)c24)CCCC3)cc1OC`
Resp: > 100 µM (inactive)

Req: Given `Cc1ccc(-n2cnc3c(N/N=C4\SCC(=O)N4c4ccccc4)ncnc32)cc1` , state its recorded GI50.
Resp: 4 µM (inactive)

Req: Can you look up the measured GI50 of CC(C)(C)C1CCC2c3c([nH]c4ccccc34)C3C(=O)N(c4ccc([N+](=O)[O-])cc4)C(=O)C3C2C1 (centres undefined) for me?
Resp: 11.5 µM (inactive)

Req: # input compound: COc1cc([C@@H]2c3cc4c(cc3[C@@H](OC3OC5COC(C)OC5C(OC(=O)CN5CCN(C)CC5)C3OC(=O)CN3CCN(C)CC3)C3COC(=O)[C@@H]32)OCO4)cc(OC)c1OC(=O)CN1CCN(C)CC1 (some centres undefined) ; wanted: its GI50
Resp: 72.3 µM (inactive)

* * *

# System: A549
# PROTOCOL DETAILS: NCI tumour cell line growth inhibition, 48 h
The source made the active and inactive calls. Cut-off read from the data, not from the text of the source: active = GI50 up to about 1.1 µM and inactive = higher. Where a SMILES comes first, the peptide text is derived from it. The star is where a group is joined. Cbz = O=C(OCc1ccccc1)*
Outcome (select one): active, inactive

Solved cases below.
| COMPOUND | CLASS NAME |
| --- | --- |
| COC(=O)CN1Cc2cc(C)cc(c2O)CN(CC(=O)OC)Cc2cc(C)cc(c2O)CN(CC(=O)OC)Cc2cc(C)cc(c2O)CN(CC(=O)OC)Cc2cc(C)cc(c2O)C1 | inactive |
| CC1(C)CCC(C)(C)c2cc(C(=O)Nc3ccc(C(=O)O)cc3)ccc21 | inactive |
| CN(CC(=O)O)c1ncc2c(n1)-c1ccccc1OC2 | inactive |
| O=C(Nc1nnc(-c2ccccc2)o1)C(SC(=S)N1CCOCC1)c1ccccc1 (centres undefined) | inactive |

Req: How did this test come out for `COc1ccc2c(c1)[C@@H](NC(C)=O)CCc1cc(OC)c(OC)c(OC)c1-2` ?
Resp: active

Req: What classification did CC(C)(C)C1=NN=C2c3ccccc3C(=O)C21 (centres undefined) end up with in this test?
Resp: inactive

Req: Recorded test outcome, item O=S(=O)(c1cccc(C(F)(F)F)c1)N1c2ccccc2-n2cccc2C1c1cccnc1 (centres undefined)
Resp: inactive

Req: What classification did CC(C(O)c1ccccc1)[N+](=O)[O-] (centres undefined) end up with in this test?
Resp: inactive

Req: Hello, I am checking results. What call was entered for Cc1cn(C(CO)OC(CO)CN(O)C2C3CC4CC(C3)CC2C4)c(=O)[nH]c1=O (centres undefined) ?
Resp: inactive

Req: # outcome recorded in this test, key = `Cc1cc(=O)oc2cc(OCc3nc4ccccc4c(=O)[nH]3)ccc12`
Resp: inactive

Req: Can you look up the reported call for `Cc1ccc(S(=O)(=O)Oc2coc(CO)cc2=O)cc1` for me?
Resp: inactive

Req: Look up the recorded call for `COc1ccc(/C=C/c2ccnc3ccccc23)cc1` in this test.
Resp: inactive

Req: Which outcome was assigned to c1cncc(C2(c3cc4ccccc4[nH]3)COCO2)c1 (centres undefined) in this test?
Resp: inactive

Req: Which outcome did this test record for the compound `CCOC(=O)c1c(NS(=O)(=O)c2ccccc2)sc2c1CCCC2` ?
Resp: inactive

Req: Test call for this compound, please: CC(=O)N1N=C(c2ccc3ccccc3c2O)CC1c1cccs1 (centres undefined)
Resp: inactive

Req: Check the results log: what was the call for `CC(C)(C)OC(=O)N1[C@@H]2Cc3ccc(N)cc3[C@@]1(C)c1ccccc12` ?
Resp: inactive

Req: Dear all, I need the recorded test outcome for CC(=O)O[C@H]1CC[C@]2(C=O)[C@H]3CC[C@]4(C)[C@@H](C5=CC(=O)OC5)CC[C@]4(O)[C@@H]3CC[C@]2(O)C1 [STROPHANTHIDIN ACETATE] , thank you.
Resp: active

Req: In this assay, the call recorded for CCOC(=O)CCC(NC(=O)C(Cc1ccccc1)NC(=O)OCc1ccccc1)C(=O)OCC (stereo not drawn) (Cbz-Phe-Glu(OEt)-OEt; configuration not given here) was what?
Resp: inactive

Req: Entry CCC12C[N+]3([O-])CCc4c([nH]c5ccccc45)C(C(=O)OC)(c4cc5c(cc4OC)N(C)C4C(O)(C(=O)OC)C(OC(C)=O)C6(CC)C=CCN7CCC54C76)CC(C3)C1O2 (centres undefined) : call = ?
Resp: active
